- Tested on: AsPC-1
- Experiment: 72-hour CellTiter-Glo 2.0 growth inhibition screen (single agent, 9x9 combination dose matrix)
- Format: cell-based
- Condition Summary: AsPC-1, Pancreas; Additional Single Agent Responses (inhibition, % I), 72 h
Endpoint: pEC50
The quantity pEC50 is defined as the negative base-10 logarithm of the molar concentration.

input: Using known records, supply pEC50 for "CN1CC[C@@H](c2c(O)cc(O)c3c(=O)cc(-c4ccc(C(F)(F)F)cc4Cl)oc23)[C@@H]1CO"
output: 5.87

###

- Experiment: PK of voruciclib, daily dosing continuously (Table 4)
- Format: in vivo
- Condition Summary: human, plasma, oral, 500 mg, Day 1, daily dosing continuously, median
Endpoint: Tmax (h)
Use h as the unit, but write only the number.

input: Using known records, supply Tmax for "CN1CC[C@@H](c2c(O)cc(O)c3c(=O)cc(-c4ccc(C(F)(F)F)cc4Cl)oc23)[C@@H]1CO"
output: 6

###

Collected IC50 values appear next to each entry.
- Tested on: AsPC-1
- Experiment: 72-hour CellTiter-Glo 2.0 growth inhibition screen (single agent, 9x9 combination dose matrix)
- Format: cell-based
- Condition Summary: Homo sapiens, ASPC1; AsPC-1, Pancreas; Additional Single Agent Responses (inhibition, % I), 72 h
Use nM as the unit, but write only the number.

>>> measured_value("CN1CCN(c2ccc(OC(F)(F)F)c(Nc3ncc4c(n3)-c3c(c(C(N)=O)nn3CCO)CC4)c2)CC1 [Onvansertib]")
332

// moving on: another record for IC50
input: Using known records, supply IC50 for CC[C@@H]1C(=O)N(C)c2cnc(Nc3ccc(C(=O)N[C@H]4CC[C@H](N5CCN(CC6CC6)CC5)CC4)cc3OC)nc2N1C(C)C [Volasertib]
output: 23.1

###

- Experiment: PK of voruciclib, 2 weeks of daily dosing followed by 1 week without dosing in a 21-day cycle (Table 3)
- Format: in vivo, human
- Condition Summary: human, plasma, oral, 75 mg, Day 13, 2 weeks daily dosing/1 week off, mean
Endpoint: Cmax (ng/mL)
Use ng/mL as the unit, but write only the number.

input: Using known records, supply Cmax for "CN1CC[C@@H](c2c(O)cc(O)c3c(=O)cc(-c4ccc(C(F)(F)F)cc4Cl)oc23)[C@@H]1CO"
output: 313

###

- Experiment: PK of voruciclib, daily dosing continuously (Table 4)
- Type: in vivo
- Condition Summary: human, plasma, oral, 350 mg, Day 15, daily dosing continuously, mean
Endpoint: AUC(0-inf) (µg·h/mL)
Use µg·h/mL as the unit, but write only the number.

input: Using known records, supply AUC(0-inf) for "CN1CC[C@@H](c2c(O)cc(O)c3c(=O)cc(-c4ccc(C(F)(F)F)cc4Cl)oc23)[C@@H]1CO"
output: 164

###

- Experiment: PK of voruciclib, 2 weeks of daily dosing followed by 1 week without dosing in a 21-day cycle (Table 3)
- Format: in vivo, human
- Condition Summary: human, plasma, oral, 600 mg, Day 1, 2 weeks daily dosing/1 week off, mean
Endpoint: AUC(0-inf) (ng·h/mL)
Use ng·h/mL as the unit, but write only the number.

input: Using known records, supply AUC(0-inf) for CN1CC[C@@H](c2c(O)cc(O)c3c(=O)cc(-c4ccc(C(F)(F)F)cc4Cl)oc23)[C@@H]1CO [Voruciclib]
output: 61500

###

- Tested on: NCI-H1373
- Experiment: 72-hour CellTiter-Glo 2.0 growth inhibition screen (single agent, 9x9 combination dose matrix)
- Format: cell-based
- Condition Summary: Homo sapiens, NCI-H1373, 72 h, NCl-H1373, Lung; growth inhibition (GI) curve, single agent, 72 h
Endpoint: EC50
Answer format reminder: number followed by unit.

input: Using known records, supply EC50 for C=CC(=O)N1CCN(c2nc(=O)n(-c3c(C)ccnc3C(C)C)c3nc(-c4c(O)cccc4F)c(F)cc23)[C@@H](C)C1 [AMG510]
output: 2.1 nM

###

- Experiment: PK of voruciclib, 2 weeks of daily dosing followed by 1 week without dosing in a 21-day cycle (Table 3)
- Format: in vivo, human
- Condition Summary: human, plasma, oral, 600 mg, Day 13, 2 weeks daily dosing/1 week off, mean
Endpoint: AUC(0-inf) (ng·h/mL)
Use ng·h/mL as the unit, but write only the number.

input: Using known records, supply AUC(0-inf) for "CN1CC[C@@H](c2c(O)cc(O)c3c(=O)cc(-c4ccc(C(F)(F)F)cc4Cl)oc23)[C@@H]1CO"
output: 86000

###

- Experiment: PK of voruciclib, 2 weeks of daily dosing followed by 1 week without dosing in a 21-day cycle (Table 3)
- Type: in vivo, human
- Condition Summary: human, plasma, oral, 600 mg, Day 13, 2 weeks daily dosing/1 week off, mean
Endpoint: half-life

input: Using known records, supply half-life for "CN1CC[C@@H](c2c(O)cc(O)c3c(=O)cc(-c4ccc(C(F)(F)F)cc4Cl)oc23)[C@@H]1CO"
output: 19 h

###

- Experiment: PK of voruciclib, daily dosing continuously (Table 4)
- Assay type: in vivo
- Condition Summary: human, plasma, oral, 500 mg, Day 15, daily dosing continuously, mean; read-out: t½ (converted)
Endpoint: half-life (h)
Use h as the unit, but write only the number.

input: Using known records, supply half-life for CN1CC[C@@H](c2c(O)cc(O)c3c(=O)cc(-c4ccc(C(F)(F)F)cc4Cl)oc23)[C@@H]1CO [Voruciclib]
output: 42.4

###

- Tested on: HCC1171
- Experiment: 72-hour CellTiter-Glo 2.0 growth inhibition screen (single agent, 9x9 combination dose matrix)
- Type: cell-based
- Condition Summary: HCC1171, Lung; growth inhibition (GI) curve, single agent, 72 h
Endpoint: EC50 (nM)
Use nM as the unit, but write only the number.

input: Provide EC50, system HCC1171, entry "CN1CC[C@@H](c2c(O)cc(O)c3c(=O)cc(-c4ccc(C(F)(F)F)cc4Cl)oc23)[C@@H]1CO"
output: 674

###

- System: LS-513
- Experiment: 72-hour CellTiter-Glo 2.0 growth inhibition screen (single agent, 9x9 combination dose matrix)
- Type: cell-based
- Condition Summary: LS-513, Colorectal; Additional Single Agent Responses (inhibition, % I), 72 h
Endpoint: pEC50
The quantity pEC50 is defined as the negative base-10 logarithm of the molar concentration.

input: Using known records, supply pEC50 for "CN1CC[C@@H](c2c(O)cc(O)c3c(=O)cc(-c4ccc(C(F)(F)F)cc4Cl)oc23)[C@@H]1CO"
output: 6.26

###

- Experiment: PK of voruciclib, daily dosing continuously (Table 4)
- Format: in vivo
- Condition Summary: human, plasma, oral, 75 mg, Day 15, daily dosing continuously, mean
Endpoint: AUC(0-inf)

input: Using known records, supply AUC(0-inf) for "CN1CC[C@@H](c2c(O)cc(O)c3c(=O)cc(-c4ccc(C(F)(F)F)cc4Cl)oc23)[C@@H]1CO"
output: 27200 ng·h/mL

###

- Test system: HPAF-II
- Experiment: 72-hour CellTiter-Glo 2.0 growth inhibition screen (single agent, 9x9 combination dose matrix)
- Type: cell-based
- Condition Summary: HPAF-II, Pancreas; Additional Single Agent Responses (inhibition, % I), 72 h
Endpoint: pEC50
The quantity pEC50 is defined as the negative base-10 logarithm of the molar concentration.

input: Using known records, supply pEC50 for "CN1CC[C@@H](c2c(O)cc(O)c3c(=O)cc(-c4ccc(C(F)(F)F)cc4Cl)oc23)[C@@H]1CO"
output: 5.88

###

- Tested on: Calu-1
- Experiment: 72-hour CellTiter-Glo 2.0 growth inhibition screen (single agent, 9x9 combination dose matrix)
- Assay type: cell-based
- Condition Summary: Calu-1, Lung; Additional Single Agent Responses (inhibition, % I), 72 h
Endpoint: EC50 (nM)
Use nM as the unit, but write only the number.

input: Using known records, supply EC50 for "CN1CC[C@@H](c2c(O)cc(O)c3c(=O)cc(-c4ccc(C(F)(F)F)cc4Cl)oc23)[C@@H]1CO"
output: 1860

###

- Experiment: PK of voruciclib, daily dosing continuously (Table 4)
- Assay type: in vivo
- Condition Summary: human, plasma, oral, 150 mg, Day 15, daily dosing continuously, n = 1
Endpoint: AUC(0-inf)

input: Using known records, supply AUC(0-inf) for "CN1CC[C@@H](c2c(O)cc(O)c3c(=O)cc(-c4ccc(C(F)(F)F)cc4Cl)oc23)[C@@H]1CO"
output: 164 µg·h/mL

###

- Experiment: PK of voruciclib, 2 weeks of daily dosing followed by 1 week without dosing in a 21-day cycle (Table 3)
- Format: in vivo, human
- Condition Summary: human, plasma, oral, 75 mg, Day 13, 2 weeks daily dosing/1 week off, mean; read-out: AUC0-t
Endpoint: AUC(0-t)
Answer format reminder: number followed by unit.

input: Using known records, supply AUC(0-t) for "CN1CC[C@@H](c2c(O)cc(O)c3c(=O)cc(-c4ccc(C(F)(F)F)cc4Cl)oc23)[C@@H]1CO"
output: 5.29 µg·h/mL

The values you see were collected from patent US20240016781A1.
